src = patent US20260274955A1

target_desc: T1, Anti-CD28 Fab (SEQ ID NOs: 202, 203)
T1 construct: biotinylated and captured on neutravidin coated plates in the phage ELISA
protocol_summary: phage ELISA on captured Fab, wells pre-incubated with CD28 antigen (competitor: CD28);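 also: bound clonal phage detected with an HRP-linked anti-M13 antibody, compared against wells that received blocking buffer alone without CD28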
Doc: threshold 0.07 (exclusive). Items with Anti-CD28 Fab signal in the presence of CD28 beneath it return Satisfied; others return Not satisfied.

YCEGHAPQHMDKCL [Phage-240] | Not satisfied
YCEGHSAEYMWKCL [Phage-213] | Not satisfied
YCAGHLPEYFLKCL [Phage-156] | Not satisfied
YCAGHLPMYMHKCL [Phage-264] | Not satisfied
YCDGHLPQYMSKCL [Phage-262] | Not satisfied
YCDGHLPQYKAKCL [Phage-160] | Not satisfied
YCDGHIPIYMSKCL [Phage-189] | Not satisfied
YCDGHTQEYIAKCL [Phage-167] | Satisfied
YCEGHSAEYMAKCL [Phage-184] | Satisfied
YCDGHAPEYVMKCL [Phage-232] | Not satisfied
